Ref: patent US7998965B2

Measured target: recombinant human catalytic domain of MMP-13 (Homo sapiens, UniProt P45452)
Construct: catalytic domain of MMP-13 (165 amino acids, residues 104-268, 19 kDa)
Run description: In vitro fluorescence assay of MMP-13 activity
Format: biochemical
Measurement parameters: Table 1; unit inferred
Catalogue of compounds with associated IC50

INSERT INTO assay_data (compound, value_reported) VALUES
  ('CCOc1cccc(-c2ccc(C(=O)N[C@@H](CCC(=O)O)C(=O)NCc3ccccc3)cc2)c1 [Example 13D]', '> 200 µM'),
  ('O=C(O)CC[C@H](NC(=O)c1ccc(-c2ccccc2)cc1)C(=O)NC1Cc2ccccc2C1', '> 50 µM'),
  ('O=C(CC[C@H](NC(=O)c1ccc(-c2ccccc2)cc1)C(=O)NCc1cccc(OC(F)(F)F)c1)NO [Example 33D]', '0.052 µM');

Continue with the compound presented below.
[in] Quick one: IC50 of `COc1cccc(CCNC(=O)[C@H](CCC(=O)O)NC(=O)c2ccc(-c3ccccc3)cc2)c1` ?
[out] ~67 µM

---

Quick reference: pIC50 of the listed items.
Measured target: purified recombinant human Aggrecanase-1 (rAgg1) (Homo sapiens)
Sequence (O75173 213-837): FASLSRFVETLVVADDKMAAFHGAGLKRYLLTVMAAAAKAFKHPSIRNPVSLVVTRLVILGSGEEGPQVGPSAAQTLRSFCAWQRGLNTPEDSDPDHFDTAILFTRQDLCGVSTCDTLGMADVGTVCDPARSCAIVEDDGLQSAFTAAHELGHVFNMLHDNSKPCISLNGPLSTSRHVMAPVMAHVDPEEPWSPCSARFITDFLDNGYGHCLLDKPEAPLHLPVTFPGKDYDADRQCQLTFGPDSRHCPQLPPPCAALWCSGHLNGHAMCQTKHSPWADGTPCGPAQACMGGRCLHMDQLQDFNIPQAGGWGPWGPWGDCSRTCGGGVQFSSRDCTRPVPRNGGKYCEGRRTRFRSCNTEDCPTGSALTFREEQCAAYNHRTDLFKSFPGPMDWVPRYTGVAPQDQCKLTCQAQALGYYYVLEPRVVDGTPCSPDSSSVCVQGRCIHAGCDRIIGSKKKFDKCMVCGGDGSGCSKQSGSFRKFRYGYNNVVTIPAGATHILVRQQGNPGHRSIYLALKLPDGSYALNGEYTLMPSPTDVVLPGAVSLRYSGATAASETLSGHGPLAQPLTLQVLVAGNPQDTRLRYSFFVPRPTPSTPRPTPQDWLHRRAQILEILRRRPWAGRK
Run description: In vitro fluorescence screen for Aggrecanase-1 inhibitors
Format: biochemical
Measurement parameters: Table 1; read-out: Agg1 IC50
pIC50 here is simply -log10 of the concentration when that concentration is written in mol/L.

The examples below pair each entry with its known result.
INSERT INTO results (compound, value_reported) VALUES
  ('O=C(O)CC[C@H](NC(=O)c1ccc(-c2ccccc2)cc1)C(=O)NCCCCO', 5.74),
  ('C=Cc1cccc(CNC(=O)[C@H](CCC(=O)O)NC(=O)c2ccc(-c3ccccc3)cc2)c1 [Example 10M]', 7.37),
  ('O=C(O)CC[C@H](NC(=O)c1ccc(-c2ccccc2)cc1)C(=O)NCCc1cccc(-c2ccc(C(F)(F)F)cc2)c1 [Example 10K]', 6.42);

[in] Looking for the measured pIC50 of `CC(C)(C)CCNC(=O)[C@H](CCC(=O)O)NC(=O)c1ccc(-c2ccccc2)cc1` , can you help?
[out] 6.64

[in] Please do the same for `O=C(O)CC[C@H](NC(=O)c1ccc(Nc2ncccn2)cc1)C(=O)NCc1ccccc1` as well.
[out] 5.40

[in] Moving on to the next compound: `CCC(C)(C)NC(=O)[C@H](CCC(=O)O)NC(=O)c1ccc(-c2ccccc2)cc1`
[out] 7.24

[in] Another compound to look at: CCC(C)NC(=O)[C@H](CCC(=O)O)NC(=O)c1ccc(-c2ccccc2)cc1 (stereo partly shown)
[out] 7.49

[in] Can you check CC(C)(Cc1ccc(F)cc1)NC(=O)C(CCC(=O)O)NC(=O)c1ccc(-c2ccccc2)cc1 (racemic) next?
[out] 7.52

[in] Proceed to `O=C(O)CC[C@H](NC(=O)c1ccc(-c2ccccc2)cc1)C(=O)NC1CC1`
[out] 6.34

[in] Now the same for C#Cc1ccc(-c2cccc(CNC(=O)[C@H](CCC(=O)O)NC(=O)c3ccc(-c4ccccc4)cc3)c2)cc1 [Example 10P]
[out] 6.15

[in] Can you check `O=C(O)CC[C@H](NC(=O)c1ccc(-c2ccccc2)cc1)C(=O)NCCCc1ccccc1` next?
[out] 7.59

[in] Let us now turn to `O=C(O)CC[C@H](NC(=O)c1ccc(Nc2ncccn2)cc1)C(=O)O`
[out] 6.05

[in] And the next one, `COc1ccc(CNC(=O)[C@H](CCC(=O)O)NC(=O)c2ccc(-c3ccccc3)cc2)cc1OC` ?
[out] 7.52

[in] Likewise for `CCCCCCCNC(=O)[C@H](CCC(=O)O)NC(=O)c1ccc(-c2ccccc2)cc1` ?
[out] 7.27

[in] Note, next up: O=C(O)CCC(NC(=O)c1ccc(-c2ccccc2)cc1)C(=O)O (stereo in doubt)
[out] 6.95

[in] Also `O=C(O)CC[C@H](NC(=O)c1ccc(-c2ccccc2)cc1)C(=O)NC1Cc2ccccc2C1` ?
[out] 6.82

[in] What do you get for `COc1cc(CNC(=O)[C@H](CCC(=O)O)NC(=O)c2ccc(-c3ccccc3)cc2)cc(OC)c1OC` ?
[out] 7.80

[in] Do the same for `O=C(O)CC[C@H](NC(=O)c1ccc(-c2ccccc2)cc1)C(=O)NCCC(c1ccccc1)c1ccccc1` please
[out] 6.55

[in] Moving on to O=C(O)CC[C@H](NC(=O)c1ccc(-c2ccccc2)cc1)C(=O)NCCc1cccc(-c2ccccn2)c1 [Example 10I]
[out] 6.49

[in] And for `CC(C)(C)CNC(=O)[C@H](CCC(=O)O)NC(=O)c1ccc(-c2ccccc2)cc1` ?
[out] 7.21

[in] Would you mind doing C#Cc1ccc(-c2ccc(CCNC(=O)[C@H](CCC(=O)O)NC(=O)c3ccc(-c4ccccc4)cc3)cc2)cc1 [Example 10F] as well?
[out] 6.89

[in] // same read-out, input: `Cc1cccc(CNC(=O)[C@H](CCC(=O)O)NC(=O)c2ccc(-c3ccccc3)cc2)c1C`
[out] 6.80

[in] Could you do the same for `O=C(O)CC[C@H](NC(=O)c1ccc(-c2ccccc2)cc1)C(=O)NCc1ccc(Cl)cc1Cl` , please?
[out] 6.82
